Measured Potency, listed per entry for reference.
tested on: Rattus norvegicus; assay: Ability to inhibit growth hormone release in vivo in sodium pentobarbital anesthetized rats; type: functional
attributeMeasured: Potency

substancesmiles=CC(C)[C@@H]1NC(=O)[C@H](CCCCN)NC(=O)[C@@H](Cc2c[nH]c3ccccc23)NC(=O)[C@H](Cc2ccc(O)cc2)NC[C@@H](NC(=O)[C@H](N)Cc2ccccc2)CSSC[C@@H](C(=O)N[C@H](C(N)=O)[C@@H](C)O)NC1=O studysystem="Rattus norvegicus" measuredresult=1960%
substancesmiles=CC(C)[C@@H]1CN[C@H](C(=O)N[C@H](C(N)=O)[C@@H](C)O)CSSC[C@H](NC(=O)[C@H](N)Cc2ccccc2)C(=O)N[C@@H](Cc2ccc(O)cc2)C(=O)N[C@H](Cc2c[nH]c3ccccc23)C(=O)N[C@@H](CCCCN)C(=O)N1 studysystem="Rattus norvegicus" measuredresult=2%
substancesmiles=CC(C)[C@@H]1NC[C@H](CCCCN)NC(=O)[C@@H](Cc2c[nH]c3ccccc23)NC(=O)[C@H](Cc2ccc(O)cc2)NC(=O)[C@@H](NC(=O)[C@H](N)Cc2ccccc2)CSSC[C@@H](C(=O)N[C@H](C(N)=O)[C@@H](C)O)NC1=O studysystem="Rattus norvegicus" measuredresult=434%
substancesmiles=CC(C)[C@@H]1NC[C@H](CCCCN)NC(=O)[C@@H](Cc2c[nH]c3ccccc23)NC(=O)[C@H](Cc2ccc(O)cc2)NC[C@@H](NC(=O)[C@H](N)Cc2ccc3ccccc3c2)CSSC[C@@H](C(=O)N[C@H](C(N)=O)[C@@H](C)O)NC1=O studysystem="Rattus norvegicus" measuredresult=50%
